target_under_test: Human MET (residues 956-1390) (Homo sapiens (Human))
Sequence (P08581 956-1390): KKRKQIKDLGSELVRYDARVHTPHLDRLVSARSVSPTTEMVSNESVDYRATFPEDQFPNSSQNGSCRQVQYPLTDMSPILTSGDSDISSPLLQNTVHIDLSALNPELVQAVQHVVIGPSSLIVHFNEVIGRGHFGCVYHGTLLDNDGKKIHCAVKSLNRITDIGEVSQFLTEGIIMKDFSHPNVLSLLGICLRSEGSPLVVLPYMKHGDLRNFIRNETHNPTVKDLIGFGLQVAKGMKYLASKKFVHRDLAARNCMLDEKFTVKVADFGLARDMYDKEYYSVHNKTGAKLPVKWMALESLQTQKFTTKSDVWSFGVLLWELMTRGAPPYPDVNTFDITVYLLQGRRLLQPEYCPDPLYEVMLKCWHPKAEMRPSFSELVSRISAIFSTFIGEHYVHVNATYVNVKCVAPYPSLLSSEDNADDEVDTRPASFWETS
experiment_summary: Human Met kinase assay, HTRF KinEase (Example D-2)
Type: biochemical
condition_context: protocol of Example D-2 (other compounds); read-out: c-Met IC50

compound	IC50
COCCOc1ccc2nccc(Oc3ccc(NC(=O)c4c(C)nc(C)c(-c5ccc(F)cc5)c4O)cc3F)c2n1 [Compound 349]	< 100 nM
COc1cc2nccc(Oc3ccc(NC(=O)c4c(C)ccn(-c5ccc(F)cc5)c4=O)cc3F)c2nc1OC [Compound 286]	< 100 nM
COc1cc2nccc(Oc3ccc(NC(=O)c4cn(N=C(N(C)C)N(C)C)cc(-c5ccc(F)cc5)c4=O)cc3F)c2nc1OC [Compound 137]	< 100 nM
COc1cc2nccc(Oc3ccc(NC(=O)c4c(C)nc(C)c(-c5ccc(F)cc5C)c4O)cc3F)c2nc1OC [Compound 177]	< 100 nM
COc1cc2nccc(Oc3ccc(NC(=O)c4ncc(C)n(-c5ccc(F)cc5)c4=O)cc3F)c2nc1OC [Compound 93]	< 100 nM
COc1cnc2c(Oc3ccc(NC(=O)c4c(C)ncc(-c5ccc(F)cc5)c4O)cc3)ccnc2c1 [Compound 236]	< 100 nM
COc1cnc2c(Oc3ccc(NC(=O)c4n[nH]c(C)c(-c5ccc(F)cc5)c4=O)cc3F)ccnc2c1 [Compound 246]	< 100 nM
COc1cc2nccc(Oc3ccc(NC(=O)c4cn(N(C)C)cc(-c5ccc(F)cc5)c4=O)cc3F)c2nc1OC [Compound 136]	< 100 nM
COc1cc2nccc(Oc3ccc(NC(=O)c4c(C)cc(C)n(-c5ccc(F)cc5C)c4=O)cc3F)c2nc1OC [Compound 298]	100 to 300 nM
COCCOc1ccc2nccc(Oc3ccc(NC(=O)c4cnc(C)c(-c5ccc(F)cc5)c4O)cc3F)c2n1 [Compound 348]	< 100 nM
COc1cnc2c(Oc3ccc(NC(=O)c4cnc(C)n(-c5ccc(F)cc5)c4=O)cc3)ccnc2c1 [Compound 266]	< 100 nM
COCc1nc(C)c(-c2ccc(F)cc2C)c(O)c1C(=O)Nc1ccc(Oc2ccnc3ccc(OC)nc23)c(F)c1 [Compound 195]	100 to 300 nM
COc1cnc2c(Oc3ccc(NC(=O)c4nnc(C)c(-c5ccc(F)cc5C)c4O)cc3F)ccnc2c1 (single isomer, unassigned) [Compound 249B]	< 100 nM

Each recorded value in this set is attributed to patent US12371428B2.
